Assignment: determine reported growth inhibition for the given compounds.
# Protocol Summary: inhibition of 3D7 malaria parasite growth – strain 3D7 (AID 2306);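 also: 0% = DMSO wells and 100% = chloroquine plus artemisinin control wells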
# Run Parameters: P. falciparum 3D7 erythrocytic growth, LDH absorbance, 72 h; at 2 µM; active compounds read high
Active and inactive are the calls of the source. No rule for the calls is given here.

Value of measured growth inhibition for the entry `C=C1N(C)c2cc([N+](=O)[O-])c(N)cc2C1(C)C` : 98% (active)

Short answer for COc1ccc(-c2cc(C(=O)N[C@@H](CC3CCCCC3)C(=O)NC3CCCc4ccccc43)ccc2O)cc1 (some centres undefined) : growth inhibition was 98% (active)

The reported value for `O=C(Cn1c2ccccc2c(=O)c2ccc(Cl)cc21)Nc1ccc(C(F)(F)F)cc1` in terms of growth inhibition is 99% (active)

# compound CCC1N=C(N)N=C(N)N1OCc1cccc2ccccc12 (centres undefined) ; its growth inhibition = 93% (active)

The compound `CS(=O)(=O)NCCCNCc1cccc(-c2csc(-c3nc4ccccc4[nH]3)c2)c1` showed growth inhibition equal to 95% (active)

Form field growth inhibition, entry `O=C(/C=C/c1ccc(Cl)c(Cl)c1)N1CCC(CCCN2CCC(c3c[nH]c4ccc(O)cc34)CC2)CC1` : 102% (active)

Sure, the documented growth inhibition for `O=C(Nc1ccc(OC2CCN(Cc3ccc(F)cc3)CC2)c(Cl)c1)c1ccc(F)cc1` is 97% (active)

Short answer for `CC(C)COc1ccc(Cl)cc1Cc1ccc(-c2nc3c(cnc4ccccc43)[nH]2)o1` : growth inhibition was 87% (active)

The value of growth inhibition measured for the compound `CN(C)CCOc1ccc(N2CCN(CCCCNC(=O)c3ccc(NC(=O)c4ccc(Cl)cc4)cc3)CC2)cc1` turned out to be 99% (active)

Kindly note the recorded growth inhibition for `COc1ccc2nccc([C@@H](O)CN3CCC(NC(=O)/C=C/c4cccc(-c5ccccc5)c4)CC3)c2c1` , which is 98% (active)

Summary for this compound, `Cc1cc(N[C@@H](CC(C)C)C(=O)NCCOc2ccccc2)nc(NCCc2ccc(F)cc2)n1` : growth inhibition is 95% (active)

// sample `NCc1ccc(-c2cccc(CNC3CCN(Cc4ccccc4)CC3)c2)cc1` , its growth inhibition was 100% (active)

compound `O=C(Nc1ccc2c(c1)CCC2)c1cccc(CN2CCCN(Cc3cccc(O)c3)CC2)c1` , growth inhibition observed: 91% (active)

Given item `CCN(CC)CCCNc1nccc(N2CCc3ncnc(Nc4ccc(OCc5cccc(F)c5)c(Cl)c4)c3C2)n1` , the value recorded as its growth inhibition is 101% (active)

Data point: `O=C(Nc1cc(F)c(F)c(-c2cccnc2)c1)N1CCc2cc(Cl)c(Cl)cc21` ; growth inhibition = 94% (active)

Memo: `O=C(Nc1cccc(CN2CCCN(Cc3ccc(O)cc3)CC2)c1)c1ccc(Cl)c(Cl)c1` , reported growth inhibition: 103% (active)

The value of growth inhibition measured for the compound C=CCOC(=O)N1CCC(CNCc2cccc(-c3cccc(-c4nc5ccc(F)cc5[nH]4)c3)c2)C1 (centres undefined) turned out to be 102% (active)

The value of growth inhibition measured for the compound CC(C(=O)OCCOCn1cnc2c(=O)[nH]c(N)nc21)N(C)C(=O)OC(C)(C)C (centres undefined) turned out to be 87% (active)

// `COc1ccc2nc(C)cc(NN=Cc3ccccc3)c2c1` : growth inhibition value = 80% (active)

Entry source: PubChem BioAssay
